Each record here notes measured Ki.
experimental system: CCK-1 receptor (Homo sapiens, UniProt P32238)
Construct: expressed in transfected cells; host or cells: CHO-K1
Sequence (P32238 1-428): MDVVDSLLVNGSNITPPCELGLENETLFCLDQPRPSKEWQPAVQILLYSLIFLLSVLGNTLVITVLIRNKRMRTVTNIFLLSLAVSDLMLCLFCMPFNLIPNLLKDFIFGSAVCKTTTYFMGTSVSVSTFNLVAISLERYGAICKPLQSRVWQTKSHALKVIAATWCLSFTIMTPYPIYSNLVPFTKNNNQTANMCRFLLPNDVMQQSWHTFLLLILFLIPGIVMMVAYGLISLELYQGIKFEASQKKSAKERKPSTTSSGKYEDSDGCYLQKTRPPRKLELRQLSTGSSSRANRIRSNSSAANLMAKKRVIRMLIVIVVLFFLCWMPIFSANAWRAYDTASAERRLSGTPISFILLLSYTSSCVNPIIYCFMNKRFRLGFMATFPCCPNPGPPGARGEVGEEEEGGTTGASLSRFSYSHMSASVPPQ
run description: CCK1 binding assay ([125I]-BH-CCK-8S displacement, CHO-K1 membranes)
measurement setup: membranes of CHO-K1 cells stably transfected with the CCK-1 receptor; 20 pM [125I]-BH-CCK-8S; 0.3 μM PD-134,308 present; 60 min at 21±3° C.; read-out: CCK1 pKi (converted)
endpoint: Ki (µM)

molecule	endpoint	unit symbol	assay value
C[C@H](CNC(=O)c1ccc(Br)cc1NS(=O)(=O)c1c(F)cccc1F)c1ccccc1	Ki	µM	0.398
COC(=O)C(NC(=O)c1ccc(Cl)cc1NS(=O)(=O)c1cccc2nccnc12)C(=O)c1ccc(Cl)c(Cl)c1 (racemic)	Ki	µM	0.316
COC(=O)[C@H](Cc1ccc(Cl)c(Br)c1)NC(=O)c1ccc(Br)cc1NS(=O)(=O)c1cccc2nsnc12	Ki	µM	0.158
O=C(N[C@@H](Cc1ccccc1)C(=O)O)c1cc(Cl)c(Cl)cc1NS(=O)(=O)c1cccc2nccnc12	Ki	µM	6.31
